molecular target: Cytochrome P450 2D6 (Homo sapiens)
Sequence (P10635 whole entry): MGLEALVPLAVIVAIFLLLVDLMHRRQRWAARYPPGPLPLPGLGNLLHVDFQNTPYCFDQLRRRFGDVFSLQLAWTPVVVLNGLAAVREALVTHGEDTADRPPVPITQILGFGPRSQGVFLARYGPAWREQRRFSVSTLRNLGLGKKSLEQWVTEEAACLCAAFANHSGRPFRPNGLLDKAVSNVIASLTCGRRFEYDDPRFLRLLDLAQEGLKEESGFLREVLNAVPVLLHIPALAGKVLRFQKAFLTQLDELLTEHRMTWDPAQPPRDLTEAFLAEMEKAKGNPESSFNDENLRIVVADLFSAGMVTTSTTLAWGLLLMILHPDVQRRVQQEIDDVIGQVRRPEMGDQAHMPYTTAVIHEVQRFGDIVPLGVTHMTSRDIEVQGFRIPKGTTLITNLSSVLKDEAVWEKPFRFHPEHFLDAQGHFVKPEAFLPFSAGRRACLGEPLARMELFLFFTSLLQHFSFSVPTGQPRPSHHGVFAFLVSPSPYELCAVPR
pIC50: −log10 of the molar value.
measurementLabel: pIC50

INPUT: What value of pIC50 has been recorded for this entry: C[C@@H](O)[C@H](NC(=O)c1ccc(C#Cc2ccc(/C=N/N3CCCC3)cc2)cc1)C(=O)NO
OUTPUT: < 4.52

---

test: Plasma protein binding in rat at 1 uM incubated for 6 hrs by LC-MS/MS analysis; format: ADME, cell-free; settings: read-out: PPB (converted)
measurementLabel: fraction unbound at 6 h, 1 µM
Please give the numeric answer without any surrounding text.

INPUT: What value of fraction unbound at 6 h, 1 µM has been recorded for this entry: C[C@@H](O)[C@H](NC(=O)c1ccc(C#Cc2ccc(/C=N/N3CCCC3)cc2)cc1)C(=O)NO
OUTPUT: 0.002
